Data provenance is PubChem BioAssay.

- procedure-summary: inhibitors of TNFa-induced NFkB p65 translocation, primary screen, imaging, HUVEC, MLSMR starter and 10KST1 sets (AID 438);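 further: compound added about 3h40 before a 20 min TNFalpha stimulation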
- test-parameters: HUVEC TNFa-induced p65 nuclear translocation; measured here: nuclei count (cytotoxicity indicator), at 2.08 µM
measure: cell count

> print(dat)
                                    compound  reported.result
 1             Cc1ccc(NC(=O)COc2nc(C)cs2)cc1              400
 2  Cc1ccc(N2CC(C(=O)Nc3nnc(C)s3)CC2=O)cc1 (stereo unspecified)              622
 3               CCN(CC)CCOC(=O)c1cccc(OC)c1              249
 4                C#CCSc1nc(-c2cccs2)ccc1C#N              340
 5  COc1cccc(C2C(C(=O)c3cccs3)=C(O)C(=O)N2CCCn2ccnc2)c1OC (stereo unspecified)              406
 6  CCOC(=O)Cn1nnnc1CN(Cc1ccc(OC)cc1)Cc1cc2cc(C)ccc2[nH]c1=O              623
 7  O=C(CN1CCN(c2nc(-c3ccc(Cl)cc3)cs2)CC1)NCc1ccco1              638
 8  Cc1cc(C)c2c(n1)nn1c(NCCCN3CCOCC3)cc(C)nc21              484
 9  O=C(Nc1ccccc1C(=O)N1CCOCC1)c1cccc(S(=O)(=O)N2CCCC2)c1              440
10  COc1cc2c(C#N)c(N3CCN(c4ccccc4OC)CC3)nc(N)c2c(N)n1              660

Could you now consider this next compound?
Asked: Given the compound CC1(C)CC(=O)C(CC(=O)NC(=O)NCc2ccccc2)=C(O)C1 , what is its reported cell count?
Given back: 462

====

- procedure-summary: blockers of RIG-like receptor reporter activation – cell-based, Sendai virus stimulus, luciferase, 10K MLSCN set, TLR/RLR signaling modifier project, primary screen (AID 602276);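 further: firefly luciferase from ISG56 promoter only with Renilla not read in this screen; 0% = Sendai virus plus DMSO and 100% = medium plus DMSO without virus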
- test-parameters: HEK293 RL24 IRF3 luciferase reporter, at 10 µM, stronger effect = higher value
measure: inhibition (%)
State the answer as a number, implicitly in %.

Solved cases below.
> print(dat)
                                   molecule     measure  units  reported.result
1  Cc1ccc(NC(=O)COS(=O)c2ccc(C)cc2)cc1 (stereo unspecified)  inhibition      %             6.94
2  Cc1ccc(CS(=O)(=O)Cc2ccc(C(=O)NCc3ccccn3)o2)cc1  inhibition      %               12

Asked: Given the molecule CCOC(=O)C1=C(N)OC2=C(C(=O)CC(C)(C)C2)C1c1ccoc1 (stereo unspecified) , what is its reported inhibition?
Given back: 3.82

Asked: Given the molecule COc1ccc(-c2cc(N3CCCC3)n3ncnc3n2)cc1 , what is its reported inhibition?
Given back: -11.3

Asked: Given the molecule CCCOC(=O)C1[C@H]2C(=O)N(CCCOC)C[C@]23C=C[C@H]1O3 (stereo partly specified) , what is its reported inhibition?
Given back: 11.7

Asked: Given the molecule Cc1ccc(C)n1NC(=O)c1ccco1 , what is its reported inhibition?
Given back: 9.01

Asked: Given the molecule O=C(CSc1nnc(-c2ccccn2)n1Cc1ccccc1)N1CCCC1 , what is its reported inhibition?
Given back: 3.06

Asked: Given the molecule CC1(C)CC(=O)C(C=Nc2ccncc2)=C(O)C1 , what is its reported inhibition?
Given back: -2.33

Asked: Given the molecule CCOC(=O)N1CCC(NC(=O)C2CCCN(C(=O)c3cc4sccc4n3C)C2)CC1 (stereo unspecified) , what is its reported inhibition?
Given back: 2.87

Asked: Given the molecule O=C(Nc1ccc(F)cc1F)NC1CC(=O)N(Cc2ccccc2)C1 (stereo unspecified) , what is its reported inhibition?
Given back: -12.5

====

- procedure-summary: endothelial E-selectin expression blockers – imaging, HUVEC, immunofluorescence, MLSMR starter and 10KST1 sets, primary screen (AID 487);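 further: signal is fraction of cell area covered by stained E-selectin grains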
- test-parameters: HUVEC TNFalpha-induced E-selectin immunofluorescence imaging, at 2 µM; stronger effect = higher value
Calls of active or inactive are those of the source.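 How the source made its calls: active means visually confirmed hit in the image check and inhibition above 20%; inconclusive means visually confirmed hit but inhibition not above 20%; inactive means no visual hit in the image check.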
measure: inhibition

Solved cases below.
> print(dat)
                                   compound    reported.result
1  COc1ccc(N2CCN(C(=O)CCNS(=O)(=O)c3ccc(Br)s3)CC2)cc1   -297% (inactive)
2  CCCCN(CC)S(=O)(=O)c1ccc2c(c1)CCCN2C(C)=O  -88.5% (inactive)
3  CC(C)(C)n1nnnc1C(c1cccs1)N1CCN(Cc2ccccc2)CC1 (centres undefined)   -163% (inactive)

Asked: Given the compound COc1ccc(C2=CC(=O)OC3(CCCCC3)O2)cc1 , what is its reported inhibition?
Given back: -152% (inactive)

====

- procedure-summary: reduction of polyQ htt aggregates in cells – imaging, exon1htt(103Q)mCFP cells, high-content imaging, primary screen (AID 483);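 further: compound exposure lasted 3 days before fixation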
- test-parameters: exon1htt(103Q)mCFP cell line, aggregate imaging, at 2 µM; stronger effect = higher value
measure: inhibition of aggregation (%)
State the answer as a number, implicitly in %.

Asked: Given the compound CC(n1cnnn1)C12CC3CC(CC(C3)C1)C2 (centres undefined) , what is its reported inhibition of aggregation?
Given back: 0.3

====

- procedure-summary: inhibitors of TNFa-induced NFkB p65 translocation, primary screen, imaging, HUVEC, MLSMR starter and 10KST1 sets (AID 438);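 further: compound added about 3h40 before a 20 min TNFalpha stimulation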;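 on inhibition: signal is the nuclear over cytoplasmic p65 intensity ratio per well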
- test-parameters: HUVEC TNFa-induced p65 nuclear translocation; at 2 µM, stronger effect = higher value, 0% TNFa-plus-vehicle, 100% no-TNFa wells
The source made the active and inactive calls.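 Rule for the calls: active = inhibition above 20% together with a positive visual image hit; inconclusive = visual image hit but inhibition not above 20%; inactive = no visual image hit.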
Recorded inhibition by entry

> print(dat)
                                   compound   reported.result
1  CCOc1cc(C)c(C(C)C)cc1S(=O)(=O)N1CCN(C)CC1  -2.4% (inactive)
2    Cc1ccc(NC(=O)CCC(=O)OCC(F)(F)C(F)F)cc1  -2.4% (inactive)
3  COc1ccc2c(c1)CCc1c(C(=O)N3CC4(C)CC3CC(C)(C)C4)noc1-2 (configuration not stated)  -6.9% (inactive)
4  O=C(Nc1ccc(O)cc1)C1CCCN1S(=O)(=O)c1ccc(F)cc1 (configuration not stated)  -2.1% (inactive)
5  Cc1[nH]n(C(N)=S)c(=O)c1C(c1ccccc1)C(C#N)C#N (configuration not stated)   9.6% (inactive)
6  COCCNC(=O)C(c1ccc(C)o1)N(C(=O)c1snc(C(N)=O)c1N)c1ccc(C)cc1 (configuration not stated)  -3.6% (inactive)

Could you now consider this next compound?
Asked: Given the compound COc1ccc(N2CCN(c3ncnc4c3cnn4-c3ccc(C)cc3C)CC2)cc1 , what is its reported inhibition?
Given back: -10.9% (inactive)

====

- procedure-summary: inhibitors of TNFa-induced NFkB p65 translocation, primary screen, imaging, HUVEC, MLSMR starter and 10KST1 sets (AID 438);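 further: compound added about 3h40 before a 20 min TNFalpha stimulation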
- test-parameters: HUVEC TNFa-induced p65 nuclear translocation; measured here: nuclei count (cytotoxicity indicator), at 2.08 µM
Binary classification by cell count, with 400 as an inclusive lower bound for Criterion met; all other cases are Criterion not met.

Solved cases below.
> print(dat)
                                    compound        group.label
 1  CCOC(=O)N1CCN(C(=O)c2ccc3c(=O)n(CCc4ccccc4)c(=O)[nH]c3c2)CC1      Criterion met
 2  COc1ccc(CNC(=O)CCc2nc(-c3ccccc3F)no2)c(OC)c1  Criterion not met
 3  COc1ccc(CNc2oc(-c3cccc4ccccc34)nc2C#N)cc1      Criterion met
 4         COc1cc(OC)cc(-c2nc3cc(C)ccc3o2)c1      Criterion met
 5  Cc1cccc(NC(=O)CC2NC3CCCCC3NC2=O)c1 (stereo unspecified)  Criterion not met
 6     Cc1cccc(OCC(=O)Nc2ccc(N3CCCC3)cc2)c1C      Criterion met
 7   COc1ccc(S(=O)(=O)NCc2ccc(C(=O)O)cc2)cc1  Criterion not met
 8       Cc1onc(-c2ccccc2)c1C(=O)NCCN1CCOCC1  Criterion not met
 9            O=C(NCc1nc2ccccc2[nH]1)c1ccco1      Criterion met
10  Cc1cnc(C(=O)Nc2ccc(N3CCN(C(=O)OC(C)(C)C)CC3)cc2)cn1  Criterion not met

Asked: Form field: cell count at least 400? Entry: COCCNC(=O)C(C)N(c1ccc(Oc2ccccc2)cc1)S(C)(=O)=O (stereo unspecified)
Given back: Criterion not met

Asked: Form field: cell count at least 400? Entry: Cc1c(NC(=O)C(C)OC(=O)C(NC(=O)c2ccco2)C(C)C)c(=O)n(-c2ccccc2)n1C (stereo unspecified)
Given back: Criterion met

Asked: Form field: cell count at least 400? Entry: CC(=O)N1CCN(S(=O)(=O)c2ccc(S(=O)(=O)NC3CC3)cc2)CC1
Given back: Criterion met

Asked: Form field: cell count at least 400? Entry: CN(c1ccccc1C(=O)NCC1CCCO1)S(C)(=O)=O (stereo unspecified)
Given back: Criterion not met

Asked: Form field: cell count at least 400? Entry: COc1ccc(-c2noc(CCCOc3ccccc3)n2)cc1OC
Given back: Criterion met

Asked: Form field: cell count at least 400? Entry: CC1CCCN(S(=O)(=O)c2ccc(C(=O)Nc3nnc(-c4ccccc4Cl)o3)cc2)C1 (stereo unspecified)
Given back: Criterion met

Asked: Form field: cell count at least 400? Entry: COc1ccccc1NC(=O)NC(N)=O
Given back: Criterion met

Asked: Form field: cell count at least 400? Entry: Cc1ccc(-n2nnnc2SCC(=O)N2CCN(C(=O)c3ccco3)CC2)c(C)c1
Given back: Criterion met

Asked: Form field: cell count at least 400? Entry: Cn1cccc1Cc1nnc(SCC(N)=O)n1-c1ccc(F)cc1
Given back: Criterion met

Asked: Form field: cell count at least 400? Entry: CCOC(=O)C1C(=O)NC(SCC(=O)Nc2nccs2)=C(C#N)C1c1ccccc1OCC (stereo unspecified)
Given back: Criterion met

Asked: Form field: cell count at least 400? Entry: Cc1cc2ccccc2n1CCNC(=O)c1ccc(S(=O)(=O)N2CCOCC2)cc1
Given back: Criterion not met

Asked: Form field: cell count at least 400? Entry: Cc1ccccc1NC(=O)C1CCCN(S(=O)(=O)c2cccc3cccnc23)C1 (stereo unspecified)
Given back: Criterion met

Asked: Form field: cell count at least 400? Entry: CSc1c(CC(=O)NCCO)n(C)c2ccccc12
Given back: Criterion met

Asked: Form field: cell count at least 400? Entry: Cc1[nH]c2c(C)cccc2c(=O)c1Br
Given back: Criterion met
